The measured values listed here are drawn from ChEMBL document CHEMBL1811880.

tested on: J82; assay: Anticancer activity against human J82 cells after 3 days by MTT assay; format: functional, cell-based; details: J82, 72 h
readout: IC50
Answer format: number, then unit.

smiles_code=O=C1CCCc2nc(-c3ccccc3)c3c(c21)C(=O)C=C(Nc1ccccc1)C3=O test_result="2.9 µM"
smiles_code=O=C1CCCc2nc(-c3ccccc3)c3c(c21)C(=O)C=CC3=O test_result="57.6 µM"

Dear reader, for each entry below, please note its IC50.
1. CCN(C1=CC(=O)c2cnc3c(c2C1=O)C(=O)CCC3)c1ccccc1
2. COc1ccc(OC)c(NC2=CC(=O)c3cnc4cccc(O)c4c3C2=O)c1
3. O=C1CCCc2nc(-c3ccsc3)c3c(c21)C(=O)C=C(Nc1ccccc1)C3=O

1. 19.5 µM
2. 0.61 µM
3. 2.5 µM

====

system: J82; assay: Anticancer activity against human J82 cells after 3 days by MTT assay; type: functional, cell-based; details: J82, 72 h
For each record, write down the corresponding pIC50.
Give bare numbers, as −log10 of the molar value.

Would you please look over these solved cases?
smiles_code=CCN(C1=CC(=O)c2c(cnc3c2C(=O)CCC3)C1=O)c1ccccc1 target_under_test=J82 test_result=4.82
smiles_code=O=C1C=CC(=O)c2c1cnc1c2C(=O)CCC1 target_under_test=J82 test_result=4.80
smiles_code=COc1ccc(OC)c(NC2=CC(=O)c3c(c(C)nc4c3C(=O)CCC4)C2=O)c1 target_under_test=J82 test_result=5.15
smiles_code=O=C1CCCc2nc(-c3ccco3)c3c(c21)C(=O)C=C(Nc1ccccc1)C3=O target_under_test=J82 test_result=5.62
smiles_code=Cc1nc2c(c3c1C(=O)C(Nc1ccc(F)cc1)=CC3=O)C(=O)CCC2 target_under_test=J82 test_result=5.42
smiles_code=O=C1CCCc2nc(-c3ccco3)c3c(c21)C(=O)C=CC3=O target_under_test=J82 test_result=4.09
smiles_code=O=C1C(Nc2ccccc2)=CC(=O)c2c1cnc1c2C(=O)CCC1 target_under_test=J82 test_result=5.68
smiles_code=COc1ccccc1NC1=CC(=O)c2c(c(C)nc3c2C(=O)CCC3)C1=O target_under_test=J82 test_result=5.43

Dear reader, for each entry below, please note its pIC50.
1. COc1ccc(OC)c(NC2=CC(=O)c3cnc4c(c3C2=O)C(=O)CCC4)c1
2. COc1ccc(OC)c(NC2=CC(=O)c3c(cnc4c3C(=O)CCC4)C2=O)c1
3. COc1ccc(OC)c(NC2=CC(=O)c3c(cnc4cccc(O)c34)C2=O)c1

4.25
5.60
5.85

Please report the recorded pIC50 for `CN(C1=CC(=O)c2cnc3c(c2C1=O)C(=O)CCC3)c1ccccc1` .
5.08
